// data source = PubChem BioAssay (NCI)

Test system: CCRF-CEM leukemia
Experiment: NCI tumour cell line growth inhibition, 48 h
Listed here are compounds together with their documented TGI.

compound: COc1nc(OC)nc(-c2cccc(F)c2)n1
TGI: > 100 µM
--
compound: Cc1occ2c1C(=O)CC1C2[C@@H](O)CC2C(C)(C)CCC[C@]12C (some centres not stated)
TGI: > 100 µM
--
compound: CC(=O)CC(C)(C)NC(=O)[C@@]1(O)CC[C@H]2[C@@H]3CCC4=CC(=O)CC[C@@H]4[C@H]3CC[C@@]21C
TGI: > 100 µM
--
compound: CCOC1OC(=O)[C@H]2[C@@H]1[C@@H]1CC[C@H]2O1 (some centres not stated)
TGI: > 100 µM
--
compound: ONC1=Nc2ccccc2OCc2cc(Br)c(Br)cc2COc2ccccc2N=C1NO
TGI: > 34.1 µM
--
compound: Cc1ccc(OCC2OC(n3cnc4c(Cl)ncnc43)CC2Oc2ccc(C)cc2)cc1 (configuration not stated)
TGI: > 40 µM
--
compound: COP(=O)(OC)C(NC=O)P(=O)(OC)OC
TGI: > 100 µM
--
compound: COc1cc2c(cc1C)NC(=O)/C2=C\c1ccncc1
TGI: > 100 µM
--
compound: Cc1ccc(SC[C@@]2(C(F)F)NC(=O)NC2=O)cc1
TGI: > 100 µM
--
compound: CC1(C)CC2=C(Sc3ccccc3N2)C(=O)C1C(=O)C(=O)Nc1cc(Cl)ccc1Cl (configuration not stated)
TGI: > 100 µM
--
compound: CC1=C(C(=O)Nc2ccc(F)c(Cl)c2)C(c2ccccc2O)NC(=O)N1 (configuration not stated)
TGI: > 100 µM
--
compound: CCCCc1c2c(nc3c1CCc1cc4cc5c(nc4nc1-3)-c1nc3c(c(CCCC)c1CC5)CCC/C3=C\c1ccccc1)/C(=C/c1ccccc1)CCC2
TGI: > 100 µM
